# credit: patent US8642540B2

Biological target: human GLP-1-R (Homo sapiens)
Construct: expressed in transfected cells
Sequence (P43220 24-463): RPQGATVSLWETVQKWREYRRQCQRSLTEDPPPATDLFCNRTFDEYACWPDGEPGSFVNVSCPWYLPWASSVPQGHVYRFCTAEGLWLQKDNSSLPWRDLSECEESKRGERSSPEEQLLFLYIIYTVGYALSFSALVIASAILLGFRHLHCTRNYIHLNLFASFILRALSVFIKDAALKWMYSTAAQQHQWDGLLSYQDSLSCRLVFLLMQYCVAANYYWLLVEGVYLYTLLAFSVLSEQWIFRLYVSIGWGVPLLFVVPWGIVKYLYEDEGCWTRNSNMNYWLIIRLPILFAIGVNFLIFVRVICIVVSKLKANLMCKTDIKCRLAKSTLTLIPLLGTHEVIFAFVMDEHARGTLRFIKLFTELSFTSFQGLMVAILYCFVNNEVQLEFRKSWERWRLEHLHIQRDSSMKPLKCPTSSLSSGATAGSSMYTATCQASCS
Test: GLP-1 receptor efficacy assay (cAMP in HEK293 cells)
Type: cell-based
Conditions: HEK293 cells expressing human GLP-1-R, 15 min at 37° C.
# EC50 listing for each entry below
Give your result in nM as a bare value.

Examples from the recorded data:
>  <substance>
H-HSQGTFTSDYSKYLDRARAEDFVAWLKST-NH2 [ZP2637]

>  <unit text>
nM

>  <EC50>
0.1

$$$$
>  <substance>
H-HSQGTFTSDYSKYLDRARADDFVEWLKST-NH2 [ZP2649]

>  <unit text>
nM

>  <EC50>
0.1

$$$$
>  <substance>
H-HSQGTFTSDYSKYLDRARADDFVAWLERA-NH2 [ZP2650]

>  <unit text>
nM

>  <EC50>
0.8

$$$$
>  <substance>
H-HSQGTFTSDYSKYLDRARAHDFVAWLKST-NH2 [ZP2648]

>  <unit text>
nM

>  <EC50>
0.1

$$$$
>  <substance>
H-HSQGTFTSDYSKYLDRARADDFVAWLKEA-NH2 [ZP2635]

>  <unit text>
nM

>  <EC50>
0.2

$$$$

Exam item: For the substance H-HSQGTFTSDYSKYLDRARADDFVAWLKSA-NH2 [ZP2634] , what EC50 is on record?
Marked response: 0.2

* * *

Target: human Glucagon-R (Homo sapiens)
Construct: expressed in transfected cells
Sequence (P47871 26-477): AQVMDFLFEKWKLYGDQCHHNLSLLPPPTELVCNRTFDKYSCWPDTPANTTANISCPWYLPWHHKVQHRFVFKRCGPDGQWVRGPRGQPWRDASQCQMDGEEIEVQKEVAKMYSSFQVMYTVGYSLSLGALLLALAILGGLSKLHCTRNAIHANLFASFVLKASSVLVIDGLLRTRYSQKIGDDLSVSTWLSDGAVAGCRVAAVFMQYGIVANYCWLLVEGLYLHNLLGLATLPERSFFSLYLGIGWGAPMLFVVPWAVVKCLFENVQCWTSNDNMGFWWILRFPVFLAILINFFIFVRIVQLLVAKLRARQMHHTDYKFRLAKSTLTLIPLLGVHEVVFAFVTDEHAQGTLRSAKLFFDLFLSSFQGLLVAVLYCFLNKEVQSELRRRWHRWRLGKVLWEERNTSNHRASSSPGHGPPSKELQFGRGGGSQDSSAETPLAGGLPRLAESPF
Assay: Glucagon receptor efficacy assay (cAMP in HEK293 cells)
Format: cell-based
Settings: HEK293 cells expressing human Glucagon-R, 15 min at 37° C., read-out: GLUR EC50
# pEC50 listing for each entry below
pEC50 (log units): -log10 of the concentration in mol/L.

>  <substance>
H-HSQGTFTSDYSKYLDRARADDFVAWLKSA-NH2 [ZP2634]

>  <observed value>
9.30

$$$$

Exam item: For the substance H-HSQGTFTSDYSKYLDRARAHDFVAWLKST-NH2 [ZP2648] , what pEC50 is on record?
Marked response: 9.70

Exam item: For the substance H-HSQGTFTSDYSKYLDRARAEDFVAWLKST-NH2 [ZP2637] , what pEC50 is on record?
Marked response: 9.70

Exam item: For the substance H-HSQGTFTSDYSKYLDRARADDFVAWLKEA-NH2 [ZP2635] , what pEC50 is on record?
Marked response: 9.70
